Tested on: rodent lifetime carcinogenesis bioassay, tumor incidence TD50
Assay: carcinogenic potency in animals, long-term in vivo studies, CPDB compilation (AID 1745844)
Details: rat; strain Osborne-Mendel; males; in feed; site: thyroid gland; lesion: follicular-cell adenoma + follicular-cell carcinoma; dosed 80 weeks; study length 109 weeks
Calls of active or inactive are those of the source. No rule for the calls is given here.
assayReadout: TD50

Output measured TD50 for this item: ClC1=C(Cl)C2(Cl)C3C(Cl)C(Cl)CC3C1(Cl)C2(Cl)Cl (stereo unspecified)
41.6 mg/kg/day (inactive)

* * *

Tested on: rodent lifetime carcinogenesis bioassay, tumor incidence TD50
Experiment: carcinogenic potency in animals, long-term in vivo studies, CPDB compilation (AID 1745844)
Conditions: mouse; strain ICR; males; in feed; site: liver; lesion: several types; types named in the paper; dosed 106 weeks; study length 106 weeks
assayReadout: TD50

Annotate the compound ClC1=C(Cl)C2(Cl)C3C(Cl)C(Cl)CC3C1(Cl)C2(Cl)Cl (stereo unspecified) with its measured TD50.
1.71 mg/kg/day
